# measured.on: T1, SIPA1L2, Q9P2F8
# T1 sequence (Q9P2F8 945-1036, limits assumed, looked up): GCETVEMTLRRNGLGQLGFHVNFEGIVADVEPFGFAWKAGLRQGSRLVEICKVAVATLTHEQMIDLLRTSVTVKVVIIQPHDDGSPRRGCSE
# assay.name: holdup assay
# Design: key: below the threshold = too weak to quantify, mostly under pKd 3.1 to 4
# condition: plain residues with an end cap or a label only (N-terminal biotin on a linker: ado-ado)
measured.metric: pKd

Below, each entry is followed by its recorded pKd result.
DTKNYKQTSV [CRIPT, Q9P021]	below the threshold
ARGPPRESEV [FAM110D, Q8TAY7]	below the threshold
DRIQSCLSDA [SBF1, O95248]	below the threshold
LPAVCYDIDI [PTTG2, Q9NZH5]	below the threshold
PYSESDDDWC [CACNA1A, O00555]	below the threshold

# query: pKd of entry MHIQEKGFHV [EPHA6, Q9UF33]
below the threshold

Can you check REEPDHSTEV [CCRL2, O00421] next?
below the threshold

Proceed to PPGKHLVTEV [KCNA7, Q96RP8]
below the threshold
